These data points were gathered from patent US20230095569A1.

# System Tested: T1, human Claudin18.1 (CLDN18.1) (human, UniProt P56856 1-261)
# T1 construct: whole, on cells; also called human Claudine18.1
# T1 sequence (P56856 whole entry): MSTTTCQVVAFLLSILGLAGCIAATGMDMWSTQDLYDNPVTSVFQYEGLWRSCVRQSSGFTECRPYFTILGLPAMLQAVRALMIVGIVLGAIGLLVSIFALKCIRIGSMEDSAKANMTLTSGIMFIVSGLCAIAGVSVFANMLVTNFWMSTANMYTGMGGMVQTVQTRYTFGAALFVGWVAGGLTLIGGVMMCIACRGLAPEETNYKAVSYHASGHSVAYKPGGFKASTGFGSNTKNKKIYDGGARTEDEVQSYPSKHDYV
# Method Description: FACS on CHOK1-18.1 cells;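 also: test antibody binding to the cells detected by flow cytometry using a fluorescent dye-labelled secondary antibody, read out as median fluorescence intensity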
Assay Readout: FACS MFI

- Binder: "Ab35 (antibody, V domains shown, mouse monoclonal (hybridoma)) VH: DVFLQESGPGLVKPSQSLSLTCTVTGYSITSDYAWNWIRQFPGNKLEWVTYIGYSGTTSYNPSLKSRISITRDTSKNQFFLQLNSVSTEDTATYYCVRRGSYYGSYWFFDVWGAGTTVTVSS VL: QVVLSQSPAILSASPGEKVTMTCRASSSVSYMHWYQQKPGSSPKPWIYATSNLASGVPPHFSGSGSGTSYSLTISRVEAEDAATYYCQQWTSNPPTFGGGTKLEIK"
  Result: 92.6
- Binder: "Ab30 (antibody, V domains shown, mouse monoclonal (hybridoma)) VH: QVQLKESGPGLVAPSQSLSITCTVSGFSLTKFGVNWVRQPPGKGLEWLGAIWGDGSTNYHSALISRLSINKDNSKSQVFLKLSSLQNVDTATYYCAKSGYGNAMDYWGHGTSVTVSS VL: DIVMTQSPSSLTVTTGEKVTLNCKSSQSLLNSGNLKNYLTWYQQRPGQPPKLLIYWASTRESGVPYRFTGSGSGTDFTLTISNVQAEDLAIYYCQNDYFFPFTFGSGTKLEIK"
  Result: 98.5
- Binder: "Ab07 (antibody, V domains shown, mouse monoclonal (hybridoma)) VH: EVQLQQSGPELVKPGASVKISCKASGYSFTDYFMNWVKQSHGKGLEWIGRINPYNGDTFYNQKFKGKATLTVDKSSSTAHMELLSLTSEDFAVYYCALYDGYWGAFVYWGQGTLVTVSA VL: DIQMTQSPASLSVFVGETVTITCRASENIYSNLAWYQQKQGKSPQLLVYAATNLADGVPSRFSGSGSGTQYSLKINSLQSEDFGSYYCQHFWGTPLTFGAGTKLELK"
  Result: 764
- Binder: "Ab23 (antibody, V domains shown, mouse monoclonal (hybridoma)) VH: EVMLVESGGGLVKPGGSLKLSCVASGFTFSSYTMSWVRQTPEKRLEWVATLSVVGGNTYYVDSVKGRFTISRDKAKNTLYLQMSSLRSEDTALYYCARLGQTQRNAMDYWGQGTSVTVSS VL: DIVMTQSPSSLSVSAGEKVTMSCKSSQSLLNSGNQKNYLAWYQQKPGQPPKLLIYGASTRESGVPDRFTGSGSGTDFTLTISSVQAEDLAVYYCQNDYSYPLTFGAGTKLEL"
  Result: 82.3
- Binder: "Ab33 (antibody, V domains shown, mouse monoclonal (hybridoma)) VH: DVNLVESGGGLVKPGGSLKLSCAASGFTFSSYTMSWVRQTPEKRLEWVATITYGRIYTYYLDSVKGRFTISRDNAKNTLYLQMSSLRSEDTAMYYCTRMITGNAMDSWGLGTSVTVSS VL: DIVMTQSPSSLTVTAGEKVTMSCKSSQSLLNSGNQKNYLTWYQQKPGQPPKLLIYWASTRESGVPDRFTGSGSGTDFTLTISGVQGEDLAVYYCQNDYSYPLTFGGGTKLELK"
  Result: 97
